- Test system: DU-145 prostate
- TEST_DETAILS: NCI tumour cell line growth inhibition, 48 h; in the data active means GI50 below about 0.43 µM; inactive means the rest
The categories you may choose from are active, inactive

Would you mind telling me which call this test gave CCN(CC)c1ccc(/C=C/C=C2\NC(=O)NC2=O)cc1 ? inactive

Next up: Cc1c(Cl)cccc1NC(=O)c1sc2nc3c(cc2c1N)CCCCC3 inactive

Next up: CC1(C)C(=O)/C(=C\c2cccnc2)C[C@]2(C)[C@H]3CC[C@@H]4[C@@H](C(=O)/C=C/c5ccncc5)CC[C@@]4(C)[C@]3(C)CC[C@@H]12 inactive

Next up: NC(=S)NN=C1CSSC1 inactive

Next up: CC(C)(C)c1ccc(NS(=O)(=O)c2ccc3nc(NC(=O)c4cnccn4)[nH]c3c2)cc1 inactive

Next up: Cc1cc(C(=O)c2ccccc2)c(C)c2c1[nH]c1ccc(Cl)cc12 active

Next up: COc1ccc2nc3cc(Cl)ccc3c(NCCNc3c4ccc(Cl)cc4nc4ccc(OC)cc34)c2c1 inactive

Next up: Oc1ccc(N=Nc2ccccn2)c(O)c1 inactive

Next up: CC(=O)c1nc2ccccc2n1CC(=O)c1cccc(Cl)c1 inactive

Next up: CCCCCCCCCCCCCCCC1=NC(C)(C)CN1C(C)C inactive

Next up: Nc1c(C(=O)Nc2cccc(Cl)c2Cl)sc2nc3c(cc12)C(=O)CCC3 inactive

Next up: O=C(NC(=S)Nc1cc(Cl)ccc1O)c1cccc(Br)c1 inactive

Next up: O=C1OCC2=C1C(c1ccccc1)c1cc3c(cc1N2CCO)OCCO3 (stereo not given) active

Next up: Cc1ccc(Sc2cc3c(oc2=O)-c2ccccc2OC3O)cc1 (stereo not given) inactive

Next up: CC[C@H](C)C(=O)O[C@H]1C[C@H](O)C=C2C=C[C@H](C)[C@H](CC[C@@H](O)C[C@@H](O)CC(=O)O)[C@H]21 inactive

====

Can you tell me TGI for the items I'm about to list?
- System: SK-MEL-2 melanoma
- TEST_DETAILS: NCI tumour cell line growth inhibition, 48 h

Give its TGI value. Item: CC1=C(C)C(=O)C(C2=CC(=O)C=CC2=O)=C(C2=CC(=O)C=CC2=O)C1=O > 100 µM

Next up: CC1=NN(c2nc(N)nc(CF)n2)C(C)(C)C1 > 100 µM

Next up: Cc1cc(Nc2cc(N)ncn2)c(=O)n2c1C(=O)NC21CCCCC1 > 100 µM

Next up: COc1cc(NC(=O)C2=C(N3CCOCC3)/C(=C/c3ccc(Cl)cc3)CC2)cc(OC)c1OC > 100 µM

Next up: Cc1ccc(-c2cc(O)c(-c3ccc(C)cc3C)cc2O)c(C)c1 30.1 µM

Next up: Fc1cc(-c2cc(-c3ccc4c(c3)OCO4)n[nH]2)c(Cl)cc1Cl 36.5 µM

Next up: COc1cccc2c1n([O-])c1cccc(OC)c1[n+]2=O > 100 µM

Next up: Cc1c(Cl)cccc1NC(=O)c1sc2nc3c(cc2c1N)CCCCC3 25.2 µM

Next up: N#CCC(=O)N1CCCCCCC1 > 100 µM

Next up: NNC(=O)C(=O)N/N=C(\CCC(=O)Nc1ccc(Cl)cc1)Cc1nc2ccccc2s1 > 100 µM

Next up: O=C(/C=C\c1ccccc1)N1CCc2ccccc2C1 91.3 µM

The origin of these recorded values is PubChem BioAssay (NCI).
